- Assayed target: PTPε (Homo sapiens, UniProt P23469)
- Sequence (P23469 20-700): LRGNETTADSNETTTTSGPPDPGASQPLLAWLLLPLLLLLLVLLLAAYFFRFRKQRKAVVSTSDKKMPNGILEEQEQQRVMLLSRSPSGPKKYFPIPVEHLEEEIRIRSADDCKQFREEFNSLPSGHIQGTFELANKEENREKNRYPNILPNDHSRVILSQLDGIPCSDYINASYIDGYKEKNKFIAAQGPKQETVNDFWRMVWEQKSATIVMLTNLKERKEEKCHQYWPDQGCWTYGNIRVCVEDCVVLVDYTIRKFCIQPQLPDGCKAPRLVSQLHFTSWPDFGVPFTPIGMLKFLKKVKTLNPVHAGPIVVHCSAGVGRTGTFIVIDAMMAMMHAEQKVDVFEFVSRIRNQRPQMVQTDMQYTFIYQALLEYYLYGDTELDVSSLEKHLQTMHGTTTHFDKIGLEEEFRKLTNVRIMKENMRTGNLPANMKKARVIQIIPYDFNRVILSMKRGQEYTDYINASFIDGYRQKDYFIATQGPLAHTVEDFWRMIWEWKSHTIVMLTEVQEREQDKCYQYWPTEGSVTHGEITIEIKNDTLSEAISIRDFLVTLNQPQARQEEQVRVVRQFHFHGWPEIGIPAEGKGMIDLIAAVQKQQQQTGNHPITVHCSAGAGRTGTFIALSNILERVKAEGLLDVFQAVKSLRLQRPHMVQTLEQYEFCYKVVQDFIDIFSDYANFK
pIC50: −log10 of the molar value.
Reported pIC50 values follow for various molecules

Here's what some known entries look like.
[
  {
    "Molecule": "O=C(C(c1ccccc1)S(=O)(=O)O)N1CCCC2CCCCC21 (stereo not drawn) [Compound L319N53]",
    "pIC50": "< 3.70"
  },
  {
    "Molecule": "O=C(CS(=O)(=O)O)Nc1cnc2ccccc2c1",
    "pIC50": "< 4.00"
  },
  {
    "Molecule": "O=C(CS(=O)(=O)O)Nc1nc2ccccc2s1 [Compound L335N15]",
    "pIC50": "< 4.00"
  }
]

[in] Report pIC50 for O=C(C(c1ccccc1)S(=O)(=O)O)N1CCC(Cc2ccccc2)CC1 (stereo not drawn) [Compound L319N46] tested on PTPε (Homo sapiens, UniProt P23469).
[out] < 3.70

[in] For the record O=C(Nc1ccc2nc(C(F)(F)F)[nH]c2c1)C(c1ccccc1)S(=O)(=O)O (stereo not drawn) [Compound L319M54] , what value of pIC50 is listed for PTPε (Homo sapiens, UniProt P23469)?
[out] < 3.70

[in] Missing value: pIC50, PTPε (Homo sapiens, UniProt P23469), entry O=C(Nc1ccc(N2CCOCC2)cc1)C(c1ccccc1)S(=O)(=O)O (stereo not drawn) [Compound L319M68] . Fill in?
[out] < 3.70

[in] Form entry - test system: PTPε (Homo sapiens, UniProt P23469); read-out: pIC50; molecule: O=C(Nc1nc2ccccc2s1)C(c1ccccc1)S(=O)(=O)O (stereo not drawn) [Compound L319N15]
[out] < 3.70

[in] Observed pIC50 on PTPε (Homo sapiens, UniProt P23469) for O=C(C(c1ccccc1)S(=O)(=O)O)N1CCC(c2ccc(Cl)c(Cl)c2)CC1 (stereo not drawn) [Compound L319N47] , please.
[out] < 3.70

[in] Please state recorded pIC50 (tested on PTPε (Homo sapiens, UniProt P23469)) of O=C(CS(=O)(=O)O)Nc1nc2ccc([N+](=O)[O-])cc2s1 [Compound L335N15-07]
[out] < 4.00

* * *

Property: IC50; scope: individual compounds
Protein target, amino acids: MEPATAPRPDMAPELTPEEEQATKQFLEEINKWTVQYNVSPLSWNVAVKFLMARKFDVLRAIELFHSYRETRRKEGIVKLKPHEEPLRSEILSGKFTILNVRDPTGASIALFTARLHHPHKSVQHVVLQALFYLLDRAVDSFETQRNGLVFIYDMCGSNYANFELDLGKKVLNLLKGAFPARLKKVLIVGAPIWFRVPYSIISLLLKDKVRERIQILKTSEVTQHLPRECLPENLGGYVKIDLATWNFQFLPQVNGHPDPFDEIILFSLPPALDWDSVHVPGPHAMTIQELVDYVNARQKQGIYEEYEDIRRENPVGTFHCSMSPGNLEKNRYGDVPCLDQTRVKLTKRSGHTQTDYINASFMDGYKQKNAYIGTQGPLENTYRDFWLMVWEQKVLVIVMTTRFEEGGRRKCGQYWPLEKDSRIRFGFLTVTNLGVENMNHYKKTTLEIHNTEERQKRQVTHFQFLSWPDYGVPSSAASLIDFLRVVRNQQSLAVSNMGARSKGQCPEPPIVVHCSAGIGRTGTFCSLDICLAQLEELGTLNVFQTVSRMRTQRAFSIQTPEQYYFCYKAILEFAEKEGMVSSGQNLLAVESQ

[in] Given the entry `Cc1c(Br)cc(NC(=O)CS(=O)(=O)O)cc1Br` , report its measured IC50.
[out] > 100 µM
